# Tested on: RAW-Dual (murine macrophage reporter line)
# run.description: NF-kB reporter (SEAP) activity fold change vs agonist alone; higher = enhanced NF-kB activity
# condition.details: modulator concentration 10 µM; agonist: MPLA […]
Given measured NF-kB reporter, output YES if it is greater than or equal to 1 and NO if not.

Here's what some known entries look like.
O=C1CCC(=O)N1C1CC2CCC(C1)N2C(=O)Cc1cccc2ccccc12 (stereo unspecified); NO
C1=C(c2c[nH]c3ccccc23)CCNC1; NO
COc1ccccc1CC(=O)N1CCN(Cc2cnnn2-c2ccccc2F)CC1; YES

## Input State whether the measured NF-kB reporter reaches 1, counting equality as reaching it, for Cc1cc(C(=O)N2C3CCC2c2cncnc2C3)n(C)n1 (stereo unspecified)
## Output NO

## Input State whether the measured NF-kB reporter reaches 1, counting equality as reaching it, for CC12CC1(C)C(=O)N(c1cc(Cl)cc(Cl)c1)C2=O (stereo unspecified)
## Output NO

---

# Test system: RAW-Dual (murine macrophage reporter line)
# run.description: NF-kB reporter (SEAP) activity fold change vs agonist alone; higher = enhanced NF-kB activity
# condition.details: modulator concentration 10 µM; agonist: MPLA […]
Given measured NF-kB reporter, output 1.0 if it is greater than or equal to 1 and 0.0 if not.

COc1ccc2c(c1)[nH]c1c(C)nccc12; 0.0
CCOC(=O)Nc1ccc(NCc2ccc(F)cc2)cc1N; 0.0
c1ccc2c(c1)Nc1ccccc1S2; 0.0
COc1cc(C2c3cc4c(cc3C(O)C3COC(=O)C23)OCO4)cc(OC)c1OC (stereo unspecified); 1.0
COc1ccc(OC)c(C=C2C(=O)NC(=O)NC2=O)c1; 1.0
Cc1noc(C)c1CC(=O)N1CCCSCC1CN1CCCC1 (stereo unspecified); 0.0

## Input State whether the measured NF-kB reporter reaches 1, counting equality as reaching it, for CCCC(=O)c1ccc(N2CCN(C)CC2)c(F)c1
## Output 0.0

## Input State whether the measured NF-kB reporter reaches 1, counting equality as reaching it, for COc1ccc(-n2c(C)nc3ccc(NC(=O)CC4CCCC4)cc3c2=O)cc1
## Output 0.0

## Input State whether the measured NF-kB reporter reaches 1, counting equality as reaching it, for CC(=O)CC(c1ccccc1)c1c(OC(C)=O)c2ccccc2oc1=O (stereo unspecified)
## Output 0.0

## Input State whether the measured NF-kB reporter reaches 1, counting equality as reaching it, for Br.NCCc1cc(O)c(O)cc1O
## Output 1.0

## Input State whether the measured NF-kB reporter reaches 1, counting equality as reaching it, for O=c1cc(CCl)occ1O
## Output 1.0

## Input State whether the measured NF-kB reporter reaches 1, counting equality as reaching it, for COc1ccc(CCNCc2cccc3ccccc23)cc1OC
## Output 0.0

## Input State whether the measured NF-kB reporter reaches 1, counting equality as reaching it, for CC(C)=CCOc1c2occc2cc2ccc(=O)oc12
## Output 0.0

## Input State whether the measured NF-kB reporter reaches 1, counting equality as reaching it, for CC(=O)OC1CCC2(C)C(=CCC3C4CCC(=O)C4(C)CCC32)C1 (stereo unspecified)
## Output 0.0

## Input State whether the measured NF-kB reporter reaches 1, counting equality as reaching it, for OCC(O)Cc1ccc2c(c1)OCO2 (stereo unspecified)
## Output 0.0

## Input State whether the measured NF-kB reporter reaches 1, counting equality as reaching it, for CCN(CC)CCOC(=O)C(O)(c1ccccc1)c1ccccc1.Cl
## Output 0.0

## Input State whether the measured NF-kB reporter reaches 1, counting equality as reaching it, for Cc1cc(OC(=O)C2CCCCC2)c2c3c(c(=O)oc2c1)CCC3
## Output 0.0

## Input State whether the measured NF-kB reporter reaches 1, counting equality as reaching it, for C1CCc2nnnn2CC1 [Prestw-162]
## Output 1.0
